These data points were gathered from paper doi:10.1101/2024.09.10.612331.

- Test System: ALX4 K211E (mouse cDNA (human protein sequence …, UniProt O35137 158-291, K199E))
- Sequence (O35137 158-291 K199E): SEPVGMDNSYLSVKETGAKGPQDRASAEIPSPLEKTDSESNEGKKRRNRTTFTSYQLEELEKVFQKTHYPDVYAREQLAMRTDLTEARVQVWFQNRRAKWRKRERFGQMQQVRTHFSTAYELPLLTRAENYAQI
- Assay Name: ITC
Measured Quantity: Kd (nM)
# number only, unit nM dropped from output

IN: What value of Kd has been recorded for this entry: 14-mer monomer site ITC duplex (dsDNA) DNA 1: CGCTAATTAGCTCG DNA 2: CGAGCTAATTAGCG
OUT: 21.5
